Exercise: state measured percent viability for each of the sequences provided.
# System: MCF10A
# protocolSummary: percent viability (nuclei count relative to siNT); higher = more viable cells
# conditions: 20 nM; 72 h
Dear colleague, please return just the value in %, with no unit written.

Exercise: Hello, I am looking for reported percent viability with MCF10A for UGAGGAGAUCGUCGAGGUUGG [hsa-miR-3150b-3p] . Could you help?
Solution: 47.3

Exercise: Next sequence up: UGUGGAAGGUAGACGGCCAGAGA [hsa-miR-3190-3p]
Solution: 19.8

Exercise: Next sequence up: CCUUCACUGUGACUCUGCUGCAG [hsa-miR-6837-3p]
Solution: 180

Exercise: Next sequence up: UAGGCCACAGCCACCCAUGUGU [hsa-miR-4717-5p]
Solution: 23.3

Exercise: Next sequence up: AGGGCCGAAGGGUGGAAGCUGC [hsa-miR-6877-5p]
Solution: 41.7

Exercise: Next sequence up: UAGGGAUGGGAGGCCAGGAUGA [hsa-miR-6757-5p]
Solution: 41.1

Exercise: Next sequence up: UGUAGAGCAGGGAGCAGGAAGCU [hsa-miR-4732-5p]
Solution: 23.8

Exercise: Next sequence up: UGUCUUCUCUCCUCCCAAACAG [hsa-miR-6740-3p]
Solution: 9.9

Exercise: Next sequence up: AGGAGGUGGUACUAGGGGCCAGC [hsa-miR-6851-5p]
Solution: 15.2

Exercise: Next sequence up: CGCGGGUCGGGGUCUGCAGG [hsa-miR-3621]
Solution: 57.8

Exercise: Next sequence up: UCAGGUGUGGAAACUGAGGCAG [hsa-miR-3934-5p]
Solution: 42.8

Exercise: Next sequence up: AAAACCGUCUAGUUACAGUUGU [hsa-miR-1537]
Solution: 73.7

Exercise: Next sequence up: AGAGAUUGGUAGAAAUCAGGU [hsa-miR-5186]
Solution: 33.8

Exercise: Next sequence up: UCAAAUGCAGAUCCUGACUUC [hsa-miR-7853-5p]
Solution: 42.1

Exercise: Next sequence up: CAUCUCUAAGGAACUCCCCCAA [hsa-miR-3675-3p]
Solution: 62

Exercise: Next sequence up: GGGAGUGCAGGGCAGGGUUUC [hsa-miR-504-3p]
Solution: 36

Exercise: Next sequence up: UUAUAAAGCAAUGAGACUGAUU [hsa-miR-340-5p]
Solution: 21.9

Exercise: Next sequence up: GUGAACGGGCGCCAUCCCGAGG [hsa-miR-887]
Solution: 73.2

Exercise: Next sequence up: AUCCCUUGCAGGGGCUGUUGGGU [hsa-miR-623]
Solution: 91.7

Exercise: Next sequence up: CCAUGAAGCAGUGGGUAGGAGGAC [hsa-miR-8060]
Solution: 43.2

Exercise: Next sequence up: UUGCAUAUGUAGGAUGUCCCAU [hsa-miR-448]
Solution: 75.6

Exercise: Next sequence up: UUUCUAUUUCUCAGUGGGGCUC [hsa-miR-4482-3p]
Solution: 21.2

Exercise: Next sequence up: CAACCCUAGGAGAGGGUGCCAUUCA [hsa-miR-652-5p]
Solution: 46.2

Exercise: Next sequence up: UAAAUAGAGUAGGCAAAGGACA [hsa-miR-3121-3p]
Solution: 49.3

Exercise: Next sequence up: UCACAAGGUAUUGACUGGCGUA [hsa-miR-4457]
Solution: 47.9

Exercise: Next sequence up: AGGGAAGGAGGCUUGGUCUUAG [hsa-miR-4747-5p]
Solution: 29.6

Exercise: Next sequence up: AAAAGCACUUUUCUGUCUCCCAG [hsa-miR-6835-3p]
Solution: 41.3

Exercise: Next sequence up: UGGGAACUUAGUAGAGGUUUAA [hsa-miR-4471]
Solution: 26.7

Exercise: Next sequence up: CUCAAGUAGUCUGACCAGGGGA [hsa-miR-4465]
Solution: 67

Exercise: Next sequence up: AGCUGUCUGUGUUUUCCUUCUCAG [hsa-miR-6876-3p]
Solution: 58.5

Exercise: Next sequence up: AUCAAAUAAGGACUAGUCUGCA [hsa-miR-3671]
Solution: 74.3

Exercise: Next sequence up: ACUGUAGUAUGGGCACUUCCAG [hsa-miR-20b-3p]
Solution: 74

Exercise: Next sequence up: GAGACUGGGGUGGGGCC [hsa-miR-4463]
Solution: 64.8

Exercise: Next sequence up: CUUAUCAGAUUGUAUUGUAAUU [hsa-miR-374a-3p]
Solution: 160

Exercise: Next sequence up: UGCUAUGCCAACAUAUUGCCAU [hsa-miR-31-3p]
Solution: 34.2

Exercise: Next sequence up: UAGUACUGUGCAUAUCAUCUAU [hsa-miR-1278]
Solution: 73.4

Exercise: Next sequence up: UGAAGCUCUGACAUUCCUGCAG [hsa-miR-6806-3p]
Solution: 26.6

Exercise: Next sequence up: AGGCAUUGACUUCUCACUAGCU [hsa-miR-1256]
Solution: 32.9

Exercise: Next sequence up: CCAGUGACUGAGCUGGAGCCA [hsa-miR-5190]
Solution: 31.7

Exercise: Next sequence up: GUGAGGAGGGGCUGGCAGGGAC [hsa-miR-6858-5p]
Solution: 84.1

Exercise: Next sequence up: ACUGCCCUAAGUGCUCCUUCUGG [hsa-miR-18a-3p]
Solution: 58.7

Exercise: Next sequence up: GAAGAACUGUUGCAUUUGCCCU [hsa-miR-4511]
Solution: 121

Exercise: Next sequence up: UGUCUACAUUAAUGAAAAGAGC [hsa-miR-3618]
Solution: 66.2

Exercise: Next sequence up: CAGCAGUGCGCAGGGCUG [hsa-miR-4519]
Solution: 27.2

Exercise: Next sequence up: CAGGAGGCAGUGGGCGAGCAGG [hsa-miR-4695-5p]
Solution: 54.7

Exercise: Next sequence up: UAUGUAGUAGUCAAAGGCAUUU [hsa-miR-7852-3p]
Solution: 81.4

Exercise: Next sequence up: CUCCUGACUCCAGGUCCUGUGU [hsa-miR-378a-5p]
Solution: 25.2

Exercise: Next sequence up: UAGGGUACUCAGAGCAAGUUGU [hsa-miR-6841-5p]
Solution: 63.6
